Target: human FSH receptor (Homo sapiens)
Sequence (P23945 18-695): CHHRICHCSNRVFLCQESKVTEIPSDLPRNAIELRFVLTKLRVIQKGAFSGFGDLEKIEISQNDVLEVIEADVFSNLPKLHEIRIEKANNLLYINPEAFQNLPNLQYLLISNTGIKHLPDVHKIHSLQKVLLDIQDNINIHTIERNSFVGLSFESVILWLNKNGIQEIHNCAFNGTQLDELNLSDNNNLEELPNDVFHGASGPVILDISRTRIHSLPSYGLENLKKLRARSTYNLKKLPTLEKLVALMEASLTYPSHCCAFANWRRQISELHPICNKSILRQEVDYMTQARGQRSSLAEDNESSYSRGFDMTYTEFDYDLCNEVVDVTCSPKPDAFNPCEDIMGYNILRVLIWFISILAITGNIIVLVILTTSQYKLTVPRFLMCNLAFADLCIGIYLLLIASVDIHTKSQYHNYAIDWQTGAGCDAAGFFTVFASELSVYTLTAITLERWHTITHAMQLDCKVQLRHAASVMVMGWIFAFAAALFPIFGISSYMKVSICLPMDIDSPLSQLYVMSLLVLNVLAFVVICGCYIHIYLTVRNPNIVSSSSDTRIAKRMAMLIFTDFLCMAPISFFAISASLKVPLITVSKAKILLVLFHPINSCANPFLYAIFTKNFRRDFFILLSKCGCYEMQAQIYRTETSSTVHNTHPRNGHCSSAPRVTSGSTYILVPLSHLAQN
Assay: hFSHRago (CHO luc): agonistic activity at the human FSH receptor expressed in CHO cells, CRE-luciferase reporter
Details: CHO cells stably transfected with human FSH receptor and CRE/luciferase reporter; 4 hours of incubation
MEASUREMENT KIND: log10(EC50) (log10 of the value in nM)
# log10 transformed; quantity=EC50; unit=nM

Query: log10(EC50); subject: COc1cc2c(cc1Br)-c1c(-c3cccs3)cc(C(=O)N(C)C(C)(C)C)n1CC2 [Example 85a]
Reply: 1.05

Query: Param item: CCOC(=O)c1cc2c(cc1OC)CCn1c(C(=O)N3CCCN(C(=O)C4CCC4)CC3)cc(-c3cccs3)c1-2 [Example 84]
Reply: 0.46

Query: Moving on to COc1cc2c(cc1OC(C)C)-c1c(-c3cccs3)cc(C(=O)N[C@@H]3CCCN(C(=O)C4CCC4)C3)n1CC2 [Example 33c]
Reply: 2.40

Query: Then what about the compound COc1cc2c(cc1OC(C)C)-c1c(-c3cccs3)cc(C(=O)N3CCNC(=O)CC3)n1CC2 [Example 13] ?
Reply: 2.03

Query: Here is the next compound: COc1cc2c(cc1OC(C)C)-c1c(-c3cccs3)cc(C(=O)N3CC4CC(CN(C(=O)CSC)C4)C3)n1CC2 [Example 21]
Reply: 1.89

Query: // query: COc1cc2c(cc1OC(C)C)-c1c(-c3cccs3)cc(C(=O)N3CC4CC(C3)CN(C(=O)C3CCC3)C4)n1CC2 [Example 22]
Reply: 0.95

Query: # repeat for CCCCN1CCN(C(=O)c2cc(-c3cccs3)c3n2CCc2cc(OC)c(OCC(C)(C)O)cc2-3)CCC1=O [Example 14d]
Reply: 0.18

Query: Note, next up: COc1cccc(Oc2cc3c(cc2OC)CCn2c(C(=O)N(C)C(C)(C)C)cc(-c4cccs4)c2-3)c1 [Example 74]
Reply: 2.31

Query: Follow-up item: COc1cc2c(cc1OC(C)C)-c1c(-c3cccs3)cc(C(=O)N3CCCN(C(=O)C4(OC)CCC4)CC3)n1CC2 [Example 11]
Reply: 0.73

Query: // query: COc1cc2c(cc1OC(C)C)-c1c(-c3cccs3)cc(C(=O)NC3C[C@@H]4CN(C(C)=O)C[C@@H]4C3)n1CC2 (stereo partly shown) [Example 23]
Reply: 2.90

Query: Also CN(C(=O)c1cc(-c2cccs2)c2n1CCc1ccc(N3CCOC3=O)cc1-2)C(C)(C)C [Example 89] , if possible.
Reply: 2.39

Query: Follow-up item: COc1cc2c(cc1C=C(F)F)-c1c(-c3cccs3)cc(C(=O)N(C)C(C)(C)C)n1CC2 [Example 93]
Reply: 0.48

Query: Try this compound next: COc1cc2c(cc1OC(C)C)-c1c(-c3cccs3)cc(C(=O)N3CCCN(C(=O)C(O)C(F)(F)F)CC3)n1CC2 (stereo not shown) [Example 4]
Reply: 0.11

Query: Would you kindly repeat that for COc1cc2c(cc1OC(C)C)-c1c(-c3cccs3)cc(C(=O)N(C)C(C)(C)CO)n1CC2 [Example 30] ?
Reply: 0.00

Query: Another: CCCCN1CCN(C(=O)c2cc(-c3cccs3)c3n2CCc2cc(OC)c(OC(C)C)cc2-3)CCC1=O [Example 14a]
Reply: -0.10

Query: Same question, COc1cc2c(cc1NC(=O)CN1CCOCC1)-c1c(-c3cccs3)cc(C(=O)N3CCCC3(C)C)n1CC2 [Example 101] this time
Reply: 0.30

Query: Then this compound: COc1cc2c(cc1CC(C)C)-c1c(-c3cccs3)cc(C(=O)N(C)C(C)(C)C)n1CC2 [Example 58c]
Reply: 0.63

Query: // same read-out, input: COc1cc2c(cc1OC)-c1c(Br)cc(C(=O)N3CCCN(C(=O)C4CCC4)CC3)n1CC2 [Example 108c]
Reply: 2.00

Query: Could you do the same for CC(C)Cc1cc2c(cc1O)CCn1c(C(=O)N(C)C(C)(C)C)cc(-c3cccs3)c1-2 [Example 61] , please?
Reply: 0.72

Query: Cool, now COc1cc2c(cc1OC(C)C)-c1c(-c3cccs3)cc(C(=O)N3CCCN(S(=O)(=O)c4cccs4)CC3)n1CC2 [Example 3]
Reply: 0.66

Query: Next compound up: COc1cc2c(cc1OC(C)C)-c1c(-c3cccs3)cc(C(=O)C(C)N(C)C)n1CC2 (stereo not shown) [Example 47]
Reply: 2.17

Query: Same again, this time with CCN(C(=O)c1cc(-c2cccs2)c2n1CCc1c-2cc(OC)c(OC)c1C)C(C)C [Example 114]
Reply: 2.51

Ref: patent US8394789B2
